Source of measurements: patent EP0211584A1

test system: isolated paced intact rabbit atria; assay: Cardiac depressant (negative inotropic) effect in isolated paced rabbit atria; conditions: Oryctolagus cuniculus; rabbit atria paced at 3Hz, 30°C, cumulative dosing; read-out: IC25 (concentration which produces 25% inhibition of isometric force)
Label scheme for IC25: lower than 10 µM is 0.0, 10 µM and above is 1.0.

Given the entry CO[C@@H](COC(=O)C1=C(C)NC2=C(C(=O)CNC2)C1c1c(F)c(F)c(F)c(F)c1F)c1ccccc1 (stereo partly shown) , answer whether its IC25 meets or surpasses 10 µM.
0.0

Given the entry CCOC(=O)C1=C(C)NC(C)=C(C(=O)OC)C1c1cccc([N+](=O)[O-])c1 (stereo not shown) [nitrendipine, reference compound] , answer whether its IC25 meets or surpasses 10 µM.
0.0

Given the entry CO[C@H](COC(=O)C1=C(C)NC2=C(C(=O)CNC2)C1c1c(F)c(F)c(F)c(F)c1F)c1ccccc1 (stereo partly shown) , answer whether its IC25 meets or surpasses 10 µM.
1.0

***
Given the entry CC1=C(C(=O)OCCOc2ccccc2)C(c2c(F)c(F)c(F)c(F)c2F)C2=C(CNCC2=O)N1 (single isomer, unassigned; (-)) [Example 3] , answer whether its IC25 meets or surpasses 10 µM.
1.0

Given the entry COC(COC(=O)C1=C(C)NC2=C(C(=O)CNC2)C1c1ccccc1C(F)(F)F)c1ccccc1 (stereo not shown) , answer whether its IC25 meets or surpasses 10 µM.
0.0
